- System: Vero E6 infected with SARS-CoV-2
- ASSAY DETAILS: inhibition of SARS-CoV-2 cytopathic effect; higher = more antiviral protection, active = above 15
- CONDITION NOTES: 1 nM; 48 h
PARAMETER: inhibition of SARS-CoV-2 cytopathic effect (%)
Reply with just the number (in %).

Known results for compounds:
[[record]]
compound = "Cc1nnc2ccc(-c3cccc(C(F)(F)F)c3)nn12"
unit = "%"
test_result = -0.37

[[record]]
compound = "Nc1nc(Nc2ccccc2)nc2c1ncn2[C@@H]1O[C@H](CO)[C@@H](O)[C@H]1O"
unit = "%"
test_result = 2.4

[[record]]
compound = "O=c1c(O[C@@H]2O[C@H](CO)[C@H](O)[C@H](O)[C@H]2O)c(-c2ccc(O)c(O)c2)oc2cc(O)cc(O)c12"
unit = "%"
test_result = 0.95

[[record]]
compound = "O=C(CCCN1CC=C(n2c(=O)[nH]c3ccccc32)CC1)c1ccc(F)cc1"
unit = "%"
test_result = -0.89

[[record]]
compound = "O=Nc1c(-c2c(O)[nH]c3cc(Br)ccc23)[nH]c2ccccc12"
unit = "%"
test_result = -0.14


## Task Form field - read-out: inhibition of SARS-CoV-2 cytopathic effect; system: Vero E6 infected with SARS-CoV-2; submitted item: CC(C)NC[C@@H](O)COc1ccccc1-n1cccc1 (racemic)
## Result 1.05

## Task // same read-out, input: "CCc1ccc2c(-c3cccc(Cl)c3)nc(=O)n(CC)c2n1"
## Result -1.8

## Task For "Cc1ccc(-n2nc(C(C)(C)C)cc2NC(=O)NCc2cc(F)ccc2Oc2ccc3c(cnn3CCO)c2)cc1" then?
## Result -0.97

## Task Do the same for N[C@@H](Cc1ccc(O)cc1)C(=O)O [plovamer-acetate] please
## Result -8.12

## Task Repeat with "O=C(O)[C@H](Cc1c[nH]c2ccccc12)N1C(=O)c2ccccc2C1=O"
## Result 2.9

## Task Next up: "C=CC[N@@+]12CC[C@@]34c5ccccc5N5/C=C6/[C@H]7C[C@H]8[C@@]9(CC[N@@+]8(CC=C)C/C7=C/CO)c7ccccc7N(/C=C(/[C@@H](C[C@@H]31)/C(=C\CO)C2)[C@H]54)[C@@H]69"
## Result 1.2

## Task Let us now turn to "S=P(N1CC1)(N1CC1)N1CC1"
## Result -0.94

## Task Continue with "c1cc2c(cc1[C@H]1OC[C@H]3[C@@H]1CO[C@@H]3c1ccc3c(c1)OCO3)OCO2"
## Result -1.62

## Task Please give the result for "CS(=O)(=O)c1cc(F)cc2c3c(n(Cc4ccc(Cl)cc4)c12)[C@@H](CC(=O)O)CC3" too.
## Result 0.24

## Task Moving on to the next compound: "CC(C)[C@H]1[C@@H]2CC[C@@H](C2)[C@@H]1N"
## Result 0.17

## Task # repeat for "CC(C)[C@](O)(c1ccc2cc(OC(F)F)c(OC(F)F)cc2c1)c1c[nH]nn1"
## Result -0.91

## Task Now consider "COC(=O)N1CCN(Cc2cccc(NC(=O)Nc3ccc(C)nc3)c2F)CC1" and answer again.
## Result -0.03
